// data source = the supplement of paper PMC6897291

System: U-2932
protocol: growth inhibition by drug alone (1 - RLU/untreated control) (fraction); higher = stronger inhibition
cond: 10 nM; time (day): 3; 177Lu-lilotomab satetraxetan 0 ug/ml
Counter-ions that a name gives are not always drawn.
Recorded growth inhibition by drug alone, one value per entry.
recorded_endpoint: growth inhibition by drug alone

{"compound": "CCN(CC)CCCCNc1ncc2cc(-c3cc(OC)cc(OC)c3)c(NC(=O)NC(C)(C)C)nc2n1", "result": -0.118}
{"compound": "Cc1ccc(NC(=O)c2ccc(CN3CCN(C)CC3)cc2)cc1Nc1nccc(-c2cccnc2)n1", "result": 0.114}
{"compound": "CC(=O)Nc1nc(C)c(-c2ccc(Cl)c(S(=O)(=O)NCCO)c2)s1", "result": 0.075}
{"compound": "CNNCc1ccc(C(=O)NC(C)C)cc1 [Procarbazine hydrochloride (Matulane)]", "result": 0.123}
{"compound": "O=C(O)C1(C(=O)O)CCC1.[NH2-].[NH2-].[Pt+2]", "result": 0.0266}
{"compound": "O=C(O)CCCc1ccccc1 [4-Phenylbutyrate]", "result": 0.0701}
{"compound": "CN(NC(=O)CC(=O)NN(C)C(=S)c1ccccc1)C(=S)c1ccccc1", "result": 0.796}
{"compound": "OCCn1cc(-c2ccc3c(c2)CC/C3=N\\O)c(-c2ccncc2)n1", "result": -0.0296}
{"compound": "COc1cc2c(cc1O)CC[C@@H]1[C@@H]2CC[C@]2(C)[C@@H](O)CC[C@@H]12", "result": -0.0505}
{"compound": "Cc1[nH]c2ccccc2c1CCNCc1ccc(/C=C/C(=O)NO)cc1", "result": 0.545}
{"compound": "CCC1=C[C@@H]2CN(C1)Cc1c([nH]c3ccccc13)[C@@](C(=O)OC)(c1cc3c(cc1OC)N(C)[C@H]1[C@@](O)(C(=O)OC)[C@H](OC(C)=O)[C@]4(CC)C=CCN5CC[C@]31[C@@H]54)C2", "result": 0.571}
{"compound": "COC1=CC(c2cc3ccccc3[nH]2)=N/C1=C\\c1[nH]c(C)cc1C [Obatoclax mesylate (GX15-070)]", "result": 0.114}
{"compound": "COc1ccccc1OCC(O)CN1CCN(CC(=O)Nc2c(C)cccc2C)CC1 (configuration not stated) [Ranolazine (Ranexa)]", "result": 0.0363}
{"compound": "CC(C)(C)c1cc(NC(=O)Nc2ccc(-c3cn4c(n3)sc3cc(OCCN5CCOCC5)ccc34)cc2)no1", "result": 0.0329}
{"compound": "CN(CCOc1ccc(CC2SC(=O)NC2=O)cc1)c1ccccn1 (configuration not stated)", "result": 0.068}
{"compound": "CS(=O)(=O)c1ccc(C(=O)Nc2ccc(Cl)c(-c3ccccn3)c2)c(Cl)c1", "result": 0.11}
{"compound": "C[C@@H](N)[C@H]1CC[C@H](C(=O)Nc2ccncc2)CC1", "result": -0.00242}

====

Test system: RIVA
protocol: growth inhibition by drug plus 177Lu-lilotomab satetraxetan (1 - RLU/untreated control) (fraction); higher = stronger inhibition
cond: 10 nM; time (day): 5; 177Lu-lilotomab satetraxetan 0.5 ug/ml
Where a name gives a salt, the structure may show the parent alone.
Recorded growth inhibition by drug plus 177Lu-lilotomab satetraxetan, one value per entry.
recorded_endpoint: growth inhibition by drug plus 177Lu-lilotomab satetraxetan

{"compound": "COC1=CC(c2cc3ccccc3[nH]2)=N/C1=C\\c1[nH]c(C)cc1C [Obatoclax mesylate (GX15-070)]", "result_number": 0.604}
{"compound": "O=C1c2ccccc2C(=O)c2c(NCCc3ccc(O)cc3)ccc(NCCc3ccc(O)cc3)c21", "result_number": 0.456}
{"compound": "C[C@]12CCC(=O)C=C1CC[C@@H]1[C@@H]2[C@@H](O)C[C@@]2(C)[C@H]1CC[C@]2(O)C(=O)CO [Hydrocortisone (Cortisol)]", "result_number": 0.597}
{"compound": "CC(=O)O[C@]1(C(C)=O)CC[C@H]2[C@@H]3C=C(C)C4=CC(=O)CC[C@]4(C)[C@H]3CC[C@@]21C [Megestrol Acetate]", "result_number": 0.546}
{"compound": "COc1cc2c(NC3CCN(C)CC3)nc(N3CCCN(C)CC3)nc2cc1OCCCN(C)C", "result_number": 0.475}
{"compound": "COc1cc2ncnc(Nc3cccc(Br)c3)c2cc1OC", "result_number": 0.483}
{"compound": "C[C@]12CC[C@@H]3c4ccc(O)cc4CC[C@H]3[C@@H]1CCC2=O", "result_number": 0.585}
{"compound": "COc1ncc(-c2ccc3nccc(-c4ccnnc4)c3c2)cc1NS(=O)(=O)c1ccc(F)cc1F", "result_number": 0.952}
